As shown below, each of these compounds has a reported IC50 value.
biological target: mouse TRPM3α2 (mTRPM3) ion channel (Mus musculus, UniProt J9SQF3); assay: TRPM3 ion channel driven Ca2+ uptake, Fluo-4 AM assay, PS-stimulated (mTRPM3); settings: TRPM3 overexpressing flip-in HEK293 cells stimulated with Pregnenolone sulfate (PS) 50 μM, activity ranges A, B, C
Sequence (J9SQF3 1-1709 isoform J9SQF3-12): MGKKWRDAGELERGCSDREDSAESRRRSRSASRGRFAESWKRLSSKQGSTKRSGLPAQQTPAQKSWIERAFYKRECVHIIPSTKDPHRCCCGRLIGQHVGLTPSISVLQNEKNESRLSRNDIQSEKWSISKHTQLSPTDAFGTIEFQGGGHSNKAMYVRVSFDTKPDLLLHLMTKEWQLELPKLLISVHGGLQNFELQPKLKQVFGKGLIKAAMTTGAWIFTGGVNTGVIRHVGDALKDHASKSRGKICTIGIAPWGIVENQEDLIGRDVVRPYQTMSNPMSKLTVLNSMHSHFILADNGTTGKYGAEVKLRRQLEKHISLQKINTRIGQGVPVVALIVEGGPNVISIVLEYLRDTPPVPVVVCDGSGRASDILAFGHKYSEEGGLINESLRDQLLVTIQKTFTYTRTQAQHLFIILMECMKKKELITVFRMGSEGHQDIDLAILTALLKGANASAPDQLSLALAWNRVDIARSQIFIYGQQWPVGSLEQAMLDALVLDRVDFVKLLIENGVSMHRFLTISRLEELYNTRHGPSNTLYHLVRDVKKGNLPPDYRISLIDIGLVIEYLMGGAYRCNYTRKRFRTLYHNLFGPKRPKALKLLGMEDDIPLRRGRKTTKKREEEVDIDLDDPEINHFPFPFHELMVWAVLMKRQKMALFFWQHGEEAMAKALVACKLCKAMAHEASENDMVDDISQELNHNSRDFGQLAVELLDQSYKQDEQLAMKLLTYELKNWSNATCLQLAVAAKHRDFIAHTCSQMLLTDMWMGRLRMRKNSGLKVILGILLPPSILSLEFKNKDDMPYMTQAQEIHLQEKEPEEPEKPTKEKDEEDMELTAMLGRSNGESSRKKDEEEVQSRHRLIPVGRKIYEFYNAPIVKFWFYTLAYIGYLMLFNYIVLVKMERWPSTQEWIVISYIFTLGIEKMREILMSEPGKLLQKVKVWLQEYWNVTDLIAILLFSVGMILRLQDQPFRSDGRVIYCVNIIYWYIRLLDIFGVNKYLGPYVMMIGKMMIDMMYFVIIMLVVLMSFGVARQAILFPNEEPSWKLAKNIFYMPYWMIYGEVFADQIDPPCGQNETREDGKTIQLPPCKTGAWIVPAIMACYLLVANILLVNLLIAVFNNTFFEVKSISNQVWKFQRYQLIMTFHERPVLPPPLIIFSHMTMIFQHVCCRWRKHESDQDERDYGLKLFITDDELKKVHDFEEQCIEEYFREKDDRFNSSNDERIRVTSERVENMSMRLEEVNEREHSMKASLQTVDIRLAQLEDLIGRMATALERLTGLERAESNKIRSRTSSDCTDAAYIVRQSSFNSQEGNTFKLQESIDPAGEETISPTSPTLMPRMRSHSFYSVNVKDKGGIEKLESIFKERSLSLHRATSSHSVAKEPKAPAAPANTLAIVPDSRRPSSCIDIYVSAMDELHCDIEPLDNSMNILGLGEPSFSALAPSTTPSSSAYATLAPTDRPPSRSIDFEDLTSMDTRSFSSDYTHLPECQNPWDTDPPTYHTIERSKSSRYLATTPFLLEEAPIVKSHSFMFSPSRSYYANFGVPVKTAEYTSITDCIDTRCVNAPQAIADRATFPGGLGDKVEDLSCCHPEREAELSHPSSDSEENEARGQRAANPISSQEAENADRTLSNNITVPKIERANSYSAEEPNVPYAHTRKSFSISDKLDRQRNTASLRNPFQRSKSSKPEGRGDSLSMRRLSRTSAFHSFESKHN

State recorded IC50 with mouse TRPM3α2 (mTRPM3) ion channel (Mus musculus, UniProt J9SQF3), entry Cc1oc2ccc(OCc3ccccc3F)cc2c1C(=O)NC1(CO)CCOC1 (single isomer, unassigned) [Cpd 327-En 2] , no comment.
< 1000 nM

State recorded IC50 with mouse TRPM3α2 (mTRPM3) ion channel (Mus musculus, UniProt J9SQF3), entry Cc1oc2ccc(OCc3ccccc3)cc2c1C(=O)NC1CCN2CCCC12 (single isomer, unassigned) [Cpd 144-Dia 2] , no comment.
< 1000 nM

State recorded IC50 with mouse TRPM3α2 (mTRPM3) ion channel (Mus musculus, UniProt J9SQF3), entry Cc1ccc(COc2ccc3oc(C)c(C(=O)NS(=O)(=O)C4CC4)c3c2)cc1 [Cpd 169] , no comment.
1000 to 20000 nM

State recorded IC50 with mouse TRPM3α2 (mTRPM3) ion channel (Mus musculus, UniProt J9SQF3), entry Cc1oc2ccc(OC(C)(C)c3ccccc3)cc2c1C(=O)NC1(CO)CCOCC1 [Cpd 316] , no comment.
< 1000 nM

State recorded IC50 with mouse TRPM3α2 (mTRPM3) ion channel (Mus musculus, UniProt J9SQF3), entry Cc1oc2ccc(OCc3ccccc3)cc2c1C(=O)NS(=O)(=O)C1CC1 [Cpd 133] , no comment.
< 1000 nM

State recorded IC50 with mouse TRPM3α2 (mTRPM3) ion channel (Mus musculus, UniProt J9SQF3), entry COCCNC(=O)c1c(C)oc2ccc(OCc3ccccc3)cc12 [Cpd 044] , no comment.
1000 to 20000 nM

====

As shown below, each of these compounds has a reported IC50 value.
biological target: mouse TRPM3α2 (mTRPM3) ion channel (Mus musculus, UniProt J9SQF3); assay: TRPM3 ion channel driven Ca2+ uptake, Fluo-4 AM assay, PS-stimulated (mTRPM3); conditions: TRPM3 overexpressing flip-in HEK293 cells stimulated with Pregnenolone sulfate (PS) 50 μM, activity ranges A, B, C

compound	IC50
Cc1oc2ccc(OCc3ccccc3)cc2c1C(=O)NC1CCN2CCCC12 (stereo not drawn) [Cpd 144]	< 1000 nM

Note: attention shifts to another entry.
State recorded IC50 with mouse TRPM3α2 (mTRPM3) ion channel (Mus musculus, UniProt J9SQF3), entry Cc1oc2ccc(OCc3ccccc3)cc2c1C(=O)NC1CCN(CCN(C)C)CC1 , no comment.
1000 to 20000 nM

====

As shown below, each of these molecules has a reported pIC50 value.
target: mouse TRPM3α2 (mTRPM3) ion channel (Mus musculus, UniProt J9SQF3); assay: TRPM3 ion channel driven Ca2+ uptake, Fluo-4 AM assay, PS-stimulated (mTRPM3); conditions: TRPM3 overexpressing flip-in HEK293 cells stimulated with Pregnenolone sulfate (PS) 50 μM, activity ranges A, B, C
pIC50: −log10 of the molar value.

Recorded pIC50, per entry:
molecule	target-or-system	pIC50
Cc1oc2ccc(OCc3ccccc3)cc2c1C(=O)N1CCCCC1	mouse TRPM3α2 (mTRPM3) ion channel (Mus musculus, UniProt J9SQF3)	< 4.70
Cc1oc2ccc(OCc3ccccc3)cc2c1C(=O)NCc1cccnc1	mouse TRPM3α2 (mTRPM3) ion channel (Mus musculus, UniProt J9SQF3)	4.70 to 6.00
CCN1CCC[C@@H]1CNC(=O)c1c(C)oc2ccc(OCc3ccccc3)cc12	mouse TRPM3α2 (mTRPM3) ion channel (Mus musculus, UniProt J9SQF3)	> 6.00
COC(=O)[C@@H]1C[C@H](NC(=O)c2c(C)oc3ccc(OCc4ccccc4)cc23)CN1	mouse TRPM3α2 (mTRPM3) ion channel (Mus musculus, UniProt J9SQF3)	> 6.00
Cc1oc2ccc(OCc3ccccc3F)cc2c1C(=O)N[C@@H]1COC[C@H]1O (relative stereo) [Cpd 330-En 2]	mouse TRPM3α2 (mTRPM3) ion channel (Mus musculus, UniProt J9SQF3)	> 6.00
Cc1oc2ccc(OCc3ccccc3)cc2c1C(=O)NCC1CCOCC1	mouse TRPM3α2 (mTRPM3) ion channel (Mus musculus, UniProt J9SQF3)	4.70 to 6.00

State recorded pIC50 with mouse TRPM3α2 (mTRPM3) ion channel (Mus musculus, UniProt J9SQF3), entry Cc1oc2ccc(OCc3ccccc3)cc2c1C(=O)N1CCC(NC(=O)OC(C)(C)C)CC1 , no comment.
< 4.70

State recorded pIC50 with mouse TRPM3α2 (mTRPM3) ion channel (Mus musculus, UniProt J9SQF3), entry Cc1oc2ccc(OC(CO)c3ccccc3F)cc2c1C(=O)NC1(C(N)=O)CCC1 (single isomer, unassigned) [Cpd 345-En 2] , no comment.
> 6.00

====

As shown below, each of these compounds has a reported pIC50 value.
molecular target: mouse TRPM3α2 (mTRPM3) ion channel (Mus musculus); construct: expressed in transfected cells; host or cells: flip-in HEK293; assay: TRPM3 ion channel driven Ca2+ uptake, Fluo-4 AM assay, PS-stimulated (mTRPM3); assay type: cell-based; settings: TRPM3 overexpressing flip-in HEK293 cells stimulated with Pregnenolone sulfate (PS) 50 μM, activity ranges A, B, C
pIC50: −log10 of the molar value.

Recorded pIC50, per entry:
compound	observation-type	recorded-value
Cc1oc2ccc(OCc3ccccc3)cc2c1C(=O)N[C@H]1C[C@H](O)C1	pIC50	> 6.00
Cc1oc2ccc(OCc3ccccc3)cc2c1C(=O)NC1CCCNCC1 (centres unmarked)	pIC50	> 6.00

Give a short answer stating reported pIC50 for Cc1oc2ccc(OCc3ccccc3)cc2c1C(=O)NC1CN2CCC1CC2 (centres unmarked) .
> 6.00

Give a short answer stating reported pIC50 for Cc1oc2ccc(OCc3ccccc3)cc2c1C(=O)NS(C)(=O)=O .
4.70 to 6.00

Give a short answer stating reported pIC50 for Cc1oc2ccc(OCc3ccccc3)cc2c1C(=O)NC1CNC1 .
< 4.70

====

As shown below, each of these molecules has a reported pIC50 value.
molecular target: mouse TRPM3α2 (mTRPM3) ion channel (Mus musculus); test: TRPM3 ion channel driven Ca2+ uptake, Fluo-4 AM assay, PS-stimulated (mTRPM3); details: TRPM3 overexpressing flip-in HEK293 cells stimulated with Pregnenolone sulfate (PS) 50 μM, activity ranges A, B, C
pIC50: −log10 of the molar value.

molecule	pIC50
Cc1oc2ccc(OCc3ccccc3F)cc2c1C(=O)NC1(C(N)=O)COC1 [Cpd 309]	> 6.00
Cc1oc2ccc(OCc3ccccc3)cc2c1C(=O)NCCc1ccncc1 [Cpd 139]	4.70 to 6.00
Cc1oc2ccc(OCc3cccc(F)c3F)cc2c1C(=O)N[C@H]1CCNC1 [Cpd 135]	> 6.00
Cc1oc2ccc(OCc3ccccc3)cc2c1C(=O)NC1CCN(C(=O)OC(C)(C)C)C(C)C1 (stereo not shown) [Cpd 252]	4.70 to 6.00
Cc1oc2ccc(OCc3ccccc3)cc2c1C(=O)NCC1(CO)COC1 [Cpd 128]	> 6.00

Give a short answer stating reported pIC50 for Cc1nc(C)n(CCNC(=O)c2c(C)oc3ccc(OCc4ccccc4)cc23)n1 [Cpd 179] .
4.70 to 6.00

Give a short answer stating reported pIC50 for Cc1oc2ccc(OCc3cccc(F)c3F)cc2c1C(=O)NC1CCNC1=O (stereo not shown) [Cpd 171] .
> 6.00

Give a short answer stating reported pIC50 for Cc1oc2ccc(OCc3ccccc3C(F)(F)F)cc2c1C(=O)NC1CNCC1(F)F (stereo not shown) [Cpd 240] .
> 6.00

====

molecular target: mouse TRPM3α2 (mTRPM3) ion channel (Mus musculus, UniProt J9SQF3); test: TRPM3 ion channel driven Ca2+ uptake, Fluo-4 AM assay, PS-stimulated (mTRPM3); conditions: TRPM3 overexpressing flip-in HEK293 cells stimulated with Pregnenolone sulfate (PS) 50 μM, activity ranges A, B, C
observation-type: IC50

Recorded IC50, per entry:
molecule	target-or-system	IC50
CCN1CCC(NC(=O)c2c(C)oc3ccc(OCc4ccccc4)cc23)C1=O (stereo not shown) [Cpd 147]	mouse TRPM3α2 (mTRPM3) ion channel (Mus musculus, UniProt J9SQF3)	< 1 µM
Cc1oc2ccc(OCc3ccccc3)cc2c1C(=O)NC1CCN(C2COC2)CC1 [Cpd 208]	mouse TRPM3α2 (mTRPM3) ion channel (Mus musculus, UniProt J9SQF3)	1 to 20 µM
Cc1oc2ccc(OCc3ccccc3)cc2c1C(=O)NC1CNCC1F (racemic) [Cpd 093]	mouse TRPM3α2 (mTRPM3) ion channel (Mus musculus, UniProt J9SQF3)	< 1 µM
Cc1oc2ccc(OCc3ccccc3)cc2c1C(=O)NC1CCN(Cc2ccccc2)CC1 [Cpd 241]	mouse TRPM3α2 (mTRPM3) ion channel (Mus musculus, UniProt J9SQF3)	1 to 20 µM

Note: attention shifts to another entry.
State recorded IC50 with mouse TRPM3α2 (mTRPM3) ion channel (Mus musculus, UniProt J9SQF3), entry Cc1oc2ccc(OC(CO)c3ccccc3F)cc2c1C(=O)N[C@@H](CO)C(N)=O (single isomer, unassigned) [Cpd 335-Dia 1] , no comment.
< 1 µM
